quantity name: glass transition temperature (°C)

Solved cases below.
compound	glass transition temperature (°C)
*CC/C=C(/*)C (repeat unit) [Polyisoprene (cis)]	-67.00
*C1C(=O)N(c2ccccc2C(=O)OCCCC)C(=O)C1* (repeat unit)	181.00
*c1ccc(Oc2ccc(N3C(=O)C4CCC(C5CCC6C(=O)N(*)C(=O)C6C5)CC4C3=O)cc2)cc1 (repeat unit)	257.00
*O[Si](C)(Oc1ccc(C(C)(C)c2ccc(*)cc2)cc1)c1ccccc1 (repeat unit)	58.00
*c1cc(C(c2ccc(OCCN(C)c3ccc(/C=C/C4=CC(=C(C#N)C#N)CC(C)(C)C4)cc3)c(N3C(=O)c4ccc(Oc5ccc6c(c5)C(=O)N(*)C6=O)cc4C3=O)c2)(C(F)(F)F)C(F)(F)F)ccc1OCCN(C)c1ccc(/C=C/C2=CC(=C(C#N)C#N)CC(C)(C)C2)cc1 (repeat unit)	215.00

P: *O[Si](*)(C)CCCOc1ccc(C(=O)Oc2ccc(-c3ccc(OC(=O)c4cc(OCCCCCCCCCCCC)c(OCCCCCCCCCCCC)c(OCCCCCCCCCCCC)c4)cc3)cc2)cc1 (repeat unit)
Q: *Oc1cc(C(C)(C)c2ccccc2)c(OC(=O)c2cccc(C(*)=O)c2)cc1C(C)(C)c1ccccc1 (repeat unit)
R: *CCCCCCOC(=O)OCCCCCCCCOC(=O)OCCCCCCn1c(=O)c2cc3c(=O)n(*)c(=O)c3cc2c1=O (repeat unit)
S: */C=C/c1ccc(*)c(-c2c(OCC(CC)CCCC)ccc3ccccc23)c1 (repeat unit)
T: *Oc1ccc(C2(c3ccc(OC(=O)c4cccc(C(*)=O)c4)cc3)c3ccccc3-c3ccccc32)cc1 (repeat unit)
Form: Sort by [glass transition temperature] Order [ ascending ] Dear reader, please state the labels in the requested order.
R, P, S, Q, T

A: *CC(CO*)(CS(=O)(=O)CCCCC)CS(=O)(=O)CCCCC (repeat unit)
B: */C(=C(/c1ccc(*)cc1)c1ccc(Oc2ccccc2)cc1)c1ccc(Oc2ccccc2)cc1 (repeat unit)
Select one: A or B . Criterion: greater recorded glass transition temperature. # answer = label of selected item
B

====

quantity name: glass transition temperature (°C)

Consider the reported glass transition temperature for these compounds:
compound	glass transition temperature [°C]
*c1ccc(Oc2ccc(P(C)(=O)c3ccc(Oc4ccc(C5(*)OC(=O)c6ccccc65)cc4)cc3)cc2)cc1 (repeat unit)	263.00
*Oc1ccc2ccc(OC(=O)c3ccc(Oc4ccc(C(*)=O)cc4)cc3)cc2c1 (repeat unit)	142.00
*c1ccc(Oc2ccc(S(=O)(=O)c3ccc(Oc4ccc(N5C(=O)c6ccc(Oc7cccc8c(Oc9ccc%10c(c9)C(=O)N(*)C%10=O)cccc78)cc6C5=O)cc4)cc3)cc2)cc1 (repeat unit)	201.00
*Nc1cccc2c(NC(=O)Nc3cc(NC(*)=O)cc(C(=O)Nc4ccc5c(c4)C(=O)c4ccccc4C5=O)c3)cccc12 (repeat unit)	178.00
*OC(CC(*)=O)C(Cl)(Cl)Cl (repeat unit)	163.50
*c1ccc(NC(=O)c2ccc(OCCOCCOc3ccc(C(=O)Nc4ccc5[nH]c(*)nc5c4)cc3)cc2)cc1 (repeat unit)	175.00

A: *Oc1c(Br)cc(S(=O)(=O)c2cc(Br)c(OC(*)=O)c(Br)c2)cc1Br (repeat unit)
B: *Oc1ccc(Oc2ccc(Oc3ccc(C(C)(C)c4ccc(*)cc4)cc3)cc2)cc1 (repeat unit)
C: *CC(*)(C)C(=O)OCCCCCCOc1ccc(C(=O)Oc2ccc(C#N)cc2)cc1 (repeat unit)
Rank order required: glass transition temperature, descending. Returns: the labels arranged in the requested order.
A, B, C

1: *N/C(C#N)=C(\C#N)NC(=O)c1ccc(C(*)=O)cc1 (repeat unit)
2: *Oc1ccc(CC(C#N)(C#N)Cc2ccc(*)cc2)cc1 (repeat unit)
Recorded glass transition temperature values differ for 1 and 2 ; which one is higher? Give the label under which the chosen entry appears.
1
(1: 232.00 °C, 2: 147.00 °C)

P: *Oc1ccc(Oc2ccc(OC(=O)NC(=O)c3cc(C(=O)NC(*)=O)cc(C(C)(C)C)c3)cc2)cc1 (repeat unit)
Q: *c1ccc(Oc2ccc(-c3ccc(Oc4ccc(-c5nc(*)nc(-c6ccccc6)n5)cc4)cc3)cc2)cc1 (repeat unit)
Of P and Q , whose reported glass transition temperature is the larger number? Use the label to indicate which entry you chose.
Q
(Q: 241.00 °C, P: 114.50 °C)
